B1: tRNA (parent)
chain: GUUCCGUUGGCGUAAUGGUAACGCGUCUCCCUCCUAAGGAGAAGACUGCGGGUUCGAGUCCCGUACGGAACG

Variants of: B1
assay protocol: yeast fitness, log relative to wild type (ln ratio); higher = fitter; tRNA-Arg(CCU), competitive growth, 37 C, 1 M NaCl
quantity: yeast fitness (ln)

AUUCCAUUGGCGUAAUGGUAACGCGUUUCCCUCCUAAGGAGAAGAUUGCGGGUUCGAGUCCCGUACGGGAUG ... -0.238
GGUCCGUUGGCGUAAUGGUAACGCGUUUCCCUCCUAAGGAGAAGACUGCGGGUUCGAGUCCCGUACGGAACG ... -0.0566
GGUCCAUUGGCGUAAUGGUAACGCGUUUCCCUCCUAAGGAGACGACUGCGGGUUCGAGUCCCGUAAGGAUUG ... -0.473
GGUCCGUUGGCGUAAUGGUAACGCGUUUCCCUCCUAAGGAGAAGAUUGCGGGUUCGAGUCCCGUAUGGAUCG ... -0.0345
GGUCCAUUGGCGUAAUGGUAACGCGUUUCCCUCCUAAGGAGACGACUGCGGGUUCGAGUCCCGUAAGGGGCG ... -0.368
AGUCCUUUGGCGUAAUGGUAACGCGUCUCCCUCCUAAGGAGAAGACUGCGGGUUCGAGUCCCGUACGGAGUG ... -0.256
AUUCCUUUGGCGUAAUGGUAACGCGUUUCCCUCCUAAGGAGACGACUGCGGGUUCGAGUCCCGUAAGGAUCG ... -0.264
AGUCCUUUGGCGUAAUGGUAACGCGUUUCCCUCCUAAGGAGACGAUUGCGGGUUCGAGUCCCGUAAGGAGUG ... -0.369
GGUCCGUUGGCGUAAUGGUAACGCGUUUCCCUCCUAAGGAGAAGAUUGCGGGUUCGAGUCCCGUACGGGGCG ... -0.355
GUUCCGUUGGCGUAAUGGUAACGCGUUUCCCUCCUAAGGAGACGAUUGCGGGUUCGAGUCCCGUACGGGGCG ... -0.0876
AGUCCGUUGGCGUAAUGGUAACGCGUCUCCCUCCUAAGGAGAAGACUGCGGGUUCGAGUCCCGUAUGGGGCG ... -0.243
